assayed.system: human GR (Homo sapiens)
Construct: U937 cells contain an endogenous glucocorticoid receptor (GR); endogenous in cells; host or cells: U937 cells stably transfected with the TNF-alpha promoter/beta-lactamase reporter
Sequence (P04150 whole entry): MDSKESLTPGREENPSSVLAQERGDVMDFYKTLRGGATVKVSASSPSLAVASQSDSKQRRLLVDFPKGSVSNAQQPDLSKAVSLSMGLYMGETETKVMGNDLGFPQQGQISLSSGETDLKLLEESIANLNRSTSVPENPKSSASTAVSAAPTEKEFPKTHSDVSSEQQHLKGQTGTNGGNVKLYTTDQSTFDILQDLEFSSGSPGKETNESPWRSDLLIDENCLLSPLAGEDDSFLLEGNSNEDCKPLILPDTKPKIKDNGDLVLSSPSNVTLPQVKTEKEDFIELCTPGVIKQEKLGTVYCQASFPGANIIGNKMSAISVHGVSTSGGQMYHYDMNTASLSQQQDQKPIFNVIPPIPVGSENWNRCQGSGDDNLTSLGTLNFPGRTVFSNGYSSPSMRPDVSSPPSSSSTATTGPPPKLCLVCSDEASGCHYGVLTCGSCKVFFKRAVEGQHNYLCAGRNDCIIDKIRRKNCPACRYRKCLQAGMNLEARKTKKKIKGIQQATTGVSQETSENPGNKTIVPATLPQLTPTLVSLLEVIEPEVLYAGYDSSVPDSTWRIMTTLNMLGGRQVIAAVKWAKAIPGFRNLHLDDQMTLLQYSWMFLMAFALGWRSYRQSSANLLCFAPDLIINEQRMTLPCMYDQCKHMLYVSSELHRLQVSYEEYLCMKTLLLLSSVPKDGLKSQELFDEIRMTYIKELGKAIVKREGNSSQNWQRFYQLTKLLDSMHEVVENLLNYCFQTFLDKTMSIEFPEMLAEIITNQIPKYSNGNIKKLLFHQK
experiment: Transrepression Assay (GITAR), TNFα-β-lactamase reporter gene in U937 cells
Format: cell-based
condition.context: inflection point; U937 cells; Table 1; read-out: Transrepression U937 Cells GITAR IP
Exam item: assign t to entries whose EC50 is below 3 µM and f to entries at or above 3 µM. Note that a value of exactly 3 µM receives f.

| compound | class |
| --- | --- |
| CC(C)CN(CC(O)C(F)(F)F)C(=O)[C@H]1CCC2=Cc3c(cnn3-c3ccccc3)C[C@@]21C (stereo partly shown) | t |

Given C[C@]12Cc3cnn(-c4ccc(F)cc4)c3C=C1CC[C@@H]2C(=O)NC(Cc1ccccc1)c1ccccc1 (stereo partly shown) , is recorded EC50 strictly lower than 3 µM?
f

Given "CC(C)CN(C[C@H](C)O)C(=O)[C@H]1CCC2=Cc3c(cnn3-c3ccc(F)cc3)C[C@@]21C" , is recorded EC50 strictly lower than 3 µM?
t

Given "COc1cccc(CN(C)C(=O)[C@H]2CCC3=Cc4c(cnn4-c4ccc(F)cc4)C[C@@]32C)c1" , is recorded EC50 strictly lower than 3 µM?
t

Cited source: patent US8338472B2
